- ASSAY SYSTEM: human steroid 5-α-reductase (Homo sapiens, UniProt P31213)
- Construct: Frozen human prostates were thawed and minced into small pieces; from tissue; host or cells: hyperplastic human prostate, 140,000×g particulate fraction
- Sequence (P31213 whole entry): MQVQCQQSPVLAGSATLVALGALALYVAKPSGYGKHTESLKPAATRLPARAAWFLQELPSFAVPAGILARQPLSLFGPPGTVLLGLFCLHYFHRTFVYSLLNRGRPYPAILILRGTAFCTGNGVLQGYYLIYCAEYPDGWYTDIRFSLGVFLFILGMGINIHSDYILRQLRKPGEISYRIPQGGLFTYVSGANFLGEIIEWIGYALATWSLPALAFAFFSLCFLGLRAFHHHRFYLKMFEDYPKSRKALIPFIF
- ASSAY PROCEDURE: Potency in inhibiting human steroid 5-α-reductase from hyperplastic human prostates ([14C]-testosterone conversion, Dixon plot)
- Type: biochemical

| STRUCTURE STRING | UOM | Ki |
| --- | --- | --- |
| CC(C)N(C(=O)[C@H]1CC[C@H]2[C@@H]3CCc4cc([PH](=O)O)ccc4[C@H]3CC[C@]12C)C(C)C | nM | 13 |
